# test target: Ba/F3-Syk cells (Homo sapiens)
# Construct: fused on or other part: Possible but unprinted fusion partner: TEL (ETV6), the usual partner for Ba/F3 lines transformed by Syk; Nothing on a partner is printed
# test: Ba/F3 Proliferation Assay, Ba/F3-Syk cells (Resazurin)
# experimental context: 48-hour incubation
value type: log10 EC50 (log10 of the value in nM)
Note the log scale: values are log10 of EC50 expressed in nM.

Looking for the measured log10 EC50 of `CC1(C)CNC[C@@H](COc2cc(-c3cnn(CC(F)F)c3)cc3ncccc23)O1` , can you help?
1.94

Another compound to look at: `c1cnc2cc(-c3cnn(C4CCC4)c3)cc(OC[C@@H]3CNCCO3)c2c1`
1.79

Another compound to look at: `CC(C)n1ccc(-c2cc(OC[C@@H]3CNCC(C)(C)O3)c3cccnc3c2)c1`
1.47

Another compound to look at: `CC(C)(C)n1cc(-c2cc3ncccc3c(OC[C@@H]3CNCC4(COC4)O3)n2)cn1`
1.67

Another compound to look at: `c1cnc2cc(-c3ccn(C4COC4)c3)cc(OC[C@@H]3CNCC4(CC4)O3)c2c1`
1.30

Another compound to look at: `C[C@@H]1NCCO[C@@H]1COc1nc(-c2ccn(C)c2)cc2ncccc12`
1.71

Another compound to look at: `CC(C)(C)n1cc(-c2cc(OC[C@@H]3CNCCO3)c3cccnc3c2)cn1`
1.65

Another compound to look at: `CC(C)(C)n1ccc(-c2cc(OC[C@@H]3CNCC4(CC4)O3)c3cccnc3c2)c1`
1.36

Another compound to look at: `C[C@H](Oc1nc(-c2ccn(C)c2)cc2ncccc12)[C@@H]1CNCC(C)(C)O1`
2.40

Another compound to look at: `Clc1cc(-c2cc3ncccc3c(OC[C@@H]3CNCCO3)n2)cs1`
2.39

Another compound to look at: `Cn1ccc(-c2cc3ncccc3c(OC[C@@H]3CNCCO3)n2)n1`
3.24

Another compound to look at: `CC(C)(C)n1cc(-c2cc3ncccc3c(OC[C@@H]3CNC[C@@H](C(F)(F)F)O3)n2)cn1`
2.37

Another compound to look at: `Cn1cc(-c2cc(OC[C@@H]3CNCCO3)c3cccnc3c2)cn1`
2.22

Another compound to look at: `c1cnc2cc(-c3ccn[nH]3)nc(OC[C@@H]3CNCCO3)c2c1`
2.87

Another compound to look at: `CC(C)n1cc(-c2cc3ncccc3c(OC[C@H]3OCCN[C@H]3C)n2)cn1`
1.30

Another compound to look at: `Cc1cc(-c2cc3ncccc3c(OC[C@@H]3CNCCO3)n2)c(C)n1C`
2.81

Another compound to look at: FC1(F)CC1n1ccc(-c2cc3ncccc3c(OC[C@@H]3CNCCO3)n2)c1 (some centres unmarked)
1.90

---

# System: Ba/F3-WT (wild type) cells
# test: Ba/F3 Proliferation Assay, Ba/F3-WT (wild type) cells with mIL-3 (Resazurin)
# Assay type: cell-based
# experimental context: Mus musculus, BaF3, 48 h, Ba/F3-WT cells +mIL-3, 48-hour incubation
Please respond with reported pEC50 for every item in the list.
pEC50 field: float, defined as -log10 of concentration (mol/L).

Looking for the measured pEC50 of `CC(C)n1cc(-c2cc(OC[C@@H]3CNC[C@@H](C)O3)c3nccnc3c2)cn1` , can you help?
6.32

Another compound to look at: `Clc1cc(-c2cc3ncccc3c(OC[C@@H]3CNCCO3)n2)cs1`
5.77

Another compound to look at: `FC(F)Cn1cc(-c2cc(OC[C@@H]3CNCCCO3)c3cccnc3c2)cn1`
5.56

Another compound to look at: `CC(C)(C)[C@H]1CNC[C@@H](COc2nc(-c3cnn(C(C)(C)C)c3)cc3ncccc23)O1`
5.52

Another compound to look at: `FC(F)c1cc(-c2cc(OC[C@@H]3CNCCO3)c3cccnc3c2)cs1`
5.72

Another compound to look at: `CCn1cc(-c2cc3ncccc3c(OC[C@@H]3CNCCO3)n2)cn1`
5.81

Another compound to look at: `CC1(C)CCO[C@H](COc2nc(-c3cnn(C(C)(C)C)c3)cc3ncccc23)CN1`
5.24

Another compound to look at: `Cn1cc(-c2cc(OC[C@@H]3CNCCO3)c3cncnc3c2)cn1`
5.13

Another compound to look at: `CC(C)(C)n1cc(-c2cc3ncccc3c(OC[C@@H]3CNCCO3)n2)cn1`
5.56

Another compound to look at: `CCn1ccc(-c2cc(O[C@H](C)[C@@H]3CNCCO3)c3cccnc3c2)c1`
5.76

Another compound to look at: Cn1cc(-c2cc3ncccc3c(OC[C@@H]3CN[C@H]4CCC[C@H]4O3)n2)cn1 (racemic) [Compound 2.53]
5.59

Another compound to look at: `Cn1cc(-c2cc3ncccc3c(OC[C@@H]3CNCCCO3)n2)cn1`
5.21

Another compound to look at: `FC(F)Cn1ccc(-c2cc3ncccc3c(OC[C@@H]3CNCCO3)n2)c1`
5.67

Another compound to look at: CC(C)(C)n1cc(-c2cc3ncccc3c(O[C@H]3CC[C@@H]4NCCO[C@@H]43)n2)cn1 (relative stereo)
5.98

Another compound to look at: Cn1cc(-c2cc3ncccc3c(OCC3CNCCCO3)n2)cn1 (stereo not drawn)
5.63

Another compound to look at: `CC[C@@H](C)n1cc(-c2cc3ncccc3c(OC[C@@H]3CNCCO3)n2)cn1`
5.69

Another compound to look at: `c1cnc2cc(-c3ccn(CC4CC4)c3)nc(OC[C@@H]3CNCCO3)c2c1`
5.58

Another compound to look at: `CC(C)n1ccc(-c2cc(OC[C@@H]3CNCCCO3)c3nccnc3c2)c1`
5.79

Another compound to look at: `CC1(C)CNC[C@@H](COc2nc(-c3cnn(C(C)(C)C)c3)cc3nccc(C(F)(F)F)c23)O1`
6.06

Another compound to look at: `CC(C)n1cc(-c2cc(O[C@H](C)[C@@H]3CNCC(C)(C)O3)c3cccnc3c2)cn1`
6.25

Another compound to look at: `C[C@@H](Oc1nc(-c2ccn(CC(F)F)c2)cc2ncccc12)[C@@H]1CNCCO1`
5.86

Another compound to look at: `CC(C)n1ccc(-c2cc(OC[C@@H]3CNCC(C)(C)O3)c3cccnc3c2)c1`
5.57

Another compound to look at: `CC(C)n1ccc(-c2cc(OC[C@@H]3CNCC4(CC4)O3)c3cccnc3c2)c1`
5.40

Another compound to look at: `C[C@@H](Oc1nc(-c2cnn(C)c2)cc2ncccc12)[C@@H]1CNCCO1`
5.60

Another compound to look at: `CC1(C)CNC[C@@H](COc2nc(-c3ccn(C4COC4)c3)cc3ncccc23)O1`
5.75

Another compound to look at: `CC[C@H](C)n1cc(-c2cc3ncccc3c(OC[C@@H]3CNCC(C)(C)O3)n2)cn1`
5.64

Another compound to look at: `CC(C)(C)n1ccc(-c2cc3ncccc3c(OC[C@@H]3CNCC4(CC4)O3)n2)c1`
5.58

Another compound to look at: `O=C1CCn2cc(-c3cc(OC[C@@H]4CNCCO4)c4cccnc4c3)cc21`
5.71

---

# Tested on: Ba/F3-WT (wild type) cells
# test: Ba/F3 Proliferation Assay, Ba/F3-WT (wild type) cells with mIL-3 (Resazurin)
# Assay type: cell-based
# experimental context: Mus musculus, BaF3, 48 h, Ba/F3-WT cells +mIL-3, 48-hour incubation
value type: pEC50
pEC50 field: float, defined as -log10 of concentration (mol/L).

For Ba/F3-WT (wild type) cells, provide pEC50 of `c1cnc2cc(-c3ccn(C4COC4)c3)cc(OC[C@@H]3CNCC4(CC4)O3)c2c1` please.
5.77

Another molecule to look at: `Cn1ccc(-c2cc(OC[C@@H]3CNCCO3)c3cccnc3c2)c1`
5.58

Another molecule to look at: `CC(C)n1cc(-c2cc(OC[C@@H]3CNCC4(CC4)O3)c3nccnc3c2)cn1`
5.79

Another molecule to look at: `CC(C)(C)n1cc(-c2cc(OC[C@@H]3CNCC4(CC4)O3)c3cccnc3c2)cn1`
5.71

---

# test: Brain Penetration Assays: Mouse Pharmacokinetics (plasma and brain levels after oral dose)
# Assay type: in vivo
# experimental context: male, CD-1, mouse, brain / plasma (unbound); mice, 1 hour post oral dose of 10 mg/kg; read-out: Kpu,u (ratio of unbound brain levels to unbound plasma levels)
Please respond with reported Kp at 1 h for every item in the list.

Looking for the measured Kp at 1 h of C[C@@H](Oc1nc(-c2ccn(C)c2)cc2ncccc12)[C@@H]1CNCCO1 [Compound 2.44] , can you help?
> 0.3

Another molecule to look at: CC(C)n1ccc(-c2cc3ncccc3c(O[C@H](C)[C@@H]3CNCCO3)n2)c1 [Compound 6.28]
0.2 to 0.3

Another molecule to look at: CC1(C)CNC[C@@H](COc2nc(-c3cnn(C(C)(C)C)c3)cc3ncccc23)O1 [Compound 2.42]
0.1 to 0.2

Another molecule to look at: CC(C)n1ccc(-c2cc3ncccc3c(OC[C@@H]3CNCC(C)(C)O3)n2)c1 [Compound 6.9]
0.1 to 0.2

Another molecule to look at: Cn1ccc(-c2cc3ncccc3c(OC[C@@H]3CNCC(C)(C)O3)n2)c1 [Compound 2.51]
> 0.3

Another molecule to look at: Cn1ccc(-c2cc3ncccc3c(OC[C@@H]3CNCCO3)n2)c1 [Compound 2.20]
0.2 to 0.3

Another molecule to look at: CC(C)n1cc(-c2cc(OC[C@@H]3CNCC(C)(C)O3)c3cccnc3c2)cn1 [Compound 3.6]
0.05 to 0.1

Another molecule to look at: CC(C)n1cc(-c2cc3ncccc3c(O[C@H](C)[C@@H]3CNCCO3)n2)cn1 [Compound 2.66]
0.05 to 0.1
